- assay_overview: recombinant UMI read abundance after kanamycin selection (control-corrected) (log10(CPM+1)); higher = more efficient recombination; extreme values may be limits of the assay; sequences stand for … in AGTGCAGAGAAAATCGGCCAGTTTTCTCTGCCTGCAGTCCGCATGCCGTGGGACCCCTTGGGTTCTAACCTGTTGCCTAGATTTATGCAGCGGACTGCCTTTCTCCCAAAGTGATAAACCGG…AGGTTGGTTTCACT; site = the 11-nt donor
Classify as follows. Reported recombinant UMI read abundance (log10) greater than or equal to 0.3: Y. Reported recombinant UMI read abundance (log10) below: N.

Some entries whose results are on file:
GTTTATCCATGGACCGGTTTTCCCGGTAATCCGTATTTGCT (site GTTTATCCTAG): Y
AGGAATACATGGACCGGTTTTCCCGGTAATCCGTATTTGGG (site AGGAATACTCC): Y
ACATCAACATGGACCGGTTTTCCCGGTAATCCGTATTTGTG (site ACATCTACTCA): N
TGAGTGGCATGGACCGGTTTTCCCGGTAATCCGTATTTGGT (site TGAGTGGCTAC): Y
TGTCCGGCATGGACCGGTTTTCCCGGTAATCCGTATTTGGC (site TGTCCGGCTGC): Y
CTTGTATCATGGACCGGTTTTCCCGGTAATCCGTATTTGAC (site CTTGTATCTGT): N
CAAAGTCCATGGACCGGTTTTCCCGGTAATCCGTATTTGTA (site CAAAGTCCTTA): Y

Query sequence follows.
Hi, just wondering whether CCCTTCTCATGGACCGGTTTTCCCGGTAATCCGTATTTGGT (site CCCTTCTCTTC) shows recombinant UMI read abundance (log10) of 0.3 or higher. N

###

- assay_overview: recombinant barcode read abundance after kanamycin selection (control-corrected) (log10(CPM+1)); higher = more efficient recombination; sequences stand for … in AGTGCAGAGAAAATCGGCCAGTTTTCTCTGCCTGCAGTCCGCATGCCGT…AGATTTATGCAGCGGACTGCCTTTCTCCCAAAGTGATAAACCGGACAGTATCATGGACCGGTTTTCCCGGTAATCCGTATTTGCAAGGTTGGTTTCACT; site = the 11-nt target
Parameter threshold = 0.2. Response is T when recombinant barcode read abundance (log10) meets or exceeds it, else F.

Example entries begin here.
CAAAGATCTTGGGTTCTAACCTGTTGCCT (site CTAAGATCTAG): F
TATCCGACTTGGGTTCTAACCTGTTGCCT (site TATCCGACTTG): F
TGTCGAGCTTGGGTTCTAACCTGTTGCCG (site TGTGGAGCTCG): F
CTCTATTCTTGGGTTCTAACCTGTTGCAT (site CTCAATTCTAT): T
TAGGTGTCTTGGGTTCTAACCTGTTGCCT (site TACGTGTCTAG): F

Test whether the sequence CAGGCCACTTGGGTTCTAACCTGTTGCCT (site CGGGCCACTAG) records recombinant barcode read abundance (log10) of 0.2 or higher. T

Same lookup for CTAGACTCTTGGGTTCTAACCTGTTGCAC (site CTAGACTCTGT) , please. T

Field entry: ACTGGGGCTTGGGTTCTAACCTGTTGCCA (site TCTGGGGCTAG) F

Okay, and TTCAAGGCTTGGGTTCTAACCTGTTGCCT (site TTCAAGCCTAG) ? F

Also AGATGGCCTTGGGTTCTAACCTGTTGCAT (site AGATGGCCTAT) , if possible. T

What do you get for AACTGGGCTTGGGTTCTAACCTGTTGCCT (site AACTGGGCTAG) ? T

And what about the sequence CCTAGACCTTGGGTTCTAACCTGTTGCCT (site CCTAGACCTAG) ? T

Now give it for TGTTGTTCTTGGGTTCTAACCTGTTGCCT (site GGTTGTTCTAG) too. F

And what about the sequence TAGTTGTCTTGGGTTCTAACCTGTTGCTT (site CGACGCACTCC) ? T

Entry to check: ACACGTGCTTGGGTTCTAACCTGTTGCGA (site CAGAAGTCTAA) T

###

- assay_overview: recombinant barcode read abundance after kanamycin selection (control-corrected) (log10(CPM+1)); higher = more efficient recombination; sequences stand for … in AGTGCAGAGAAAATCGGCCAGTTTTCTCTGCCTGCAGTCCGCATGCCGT…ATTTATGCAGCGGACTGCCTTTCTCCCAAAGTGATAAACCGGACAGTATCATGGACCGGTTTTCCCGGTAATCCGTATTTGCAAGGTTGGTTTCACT; site = the 11-nt target
Decision: recombinant barcode read abundance (log10) compared against 0.2; not below it gives yes, below it gives no.

Study these solved cases before continuing.
TCGCGACCATGGGTTCTAACCTGTTGCCGTG [TCGCGACCTCG_LTGcore_CA_RTGcore_CA] (site TCGCGACCTCG) (LTG core: CA, RTG core: CA): no
ATGTCCCCTTGGGTTCTAACCTGTTGCTCCC [ATGTCCCCTGA_LTGcore_CT_RTGcore_GG] (site ATGTCCCCTGA) (LTG core: CT, RTG core: GG): no
CGAGCCCGATGGGTTCTAACCTGTTGCTGAG [CGAGCCCCTCA_LTGcore_GA_RTGcore_CT] (site CGAGCCCCTCA) (LTG core: GA, RTG core: CT): no
CATATTACTTGGGTTCTAACCTGTTGCCTTT [CATATTACTAG_LTGcore_CT_RTGcore_AA] (site CATATTACTAG) (LTG core: CT, RTG core: AA): no
AGGCGGTCTTGGGTTCTAACCTGTTGCTTGG [AGGCGGTCTAA_LTGcore_CT_RTGcore_CC] (site AGGCGGTCTAA) (LTG core: CT, RTG core: CC): yes

Determine whether this sequence has recombinant barcode read abundance (log10) no lower than 0.2: AAACATGCTTGGGTTCTAACCTGTTGCCTTC [AAACATGCTAG_LTGcore_CT_RTGcore_GA] (site AAACATGCTAG) (LTG core: CT, RTG core: GA) yes

Same question, GAGTCCTCTTGGGTTCTAACCTGTTGCCTAA [GAGTCCTCTAG_LTGcore_CT_RTGcore_TT] (site GAGTCCTCTAG) (LTG core: CT, RTG core: TT) this time yes

###

- assay_overview: recombinant UMI read abundance after kanamycin selection (control-corrected) (log10(CPM+1)); higher = more efficient recombination; extreme values may be limits of the assay; sequences stand for … in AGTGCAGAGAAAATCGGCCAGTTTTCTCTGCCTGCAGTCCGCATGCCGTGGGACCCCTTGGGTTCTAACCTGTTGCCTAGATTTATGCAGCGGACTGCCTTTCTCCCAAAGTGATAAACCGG…AGGTTGGTTTCACT; site = the 11-nt donor
Rule: Fulfilled for recombinant UMI read abundance (log10) not less than 0.7, Not fulfilled for anything less.

These recorded examples may help you get a feel for the data.
TCAGAAACATGGACCGGTTTTCCCGGTAATCCGTATTTGCG (site TCAGACACTCG): Not fulfilled
CCGCTAGCATGGACCGGTTTTCCCGGTAATCCGTATTTGTG (site CCGATAGCTCA): Not fulfilled

With those in mind, consider the next sequence.
Determine whether measured recombinant UMI read abundance (log10) meets or exceeds 0.7 for CCCTAGACATGGACCGGTTTTCCCGGTAATCCGTATTTGCC (site CCCTAGTCTGG) Not fulfilled

###

- assay_overview: recombinant barcode read abundance after kanamycin selection (control-corrected) (log10(CPM+1)); higher = more efficient recombination; sequences stand for … in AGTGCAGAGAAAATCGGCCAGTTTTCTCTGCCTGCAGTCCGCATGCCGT…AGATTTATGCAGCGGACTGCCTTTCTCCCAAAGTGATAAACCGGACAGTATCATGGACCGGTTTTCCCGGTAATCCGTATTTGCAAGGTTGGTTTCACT; site = the 11-nt target
reported_metric: recombinant barcode read abundance (log10)
Output: the number by itself.

Return reported recombinant barcode read abundance (log10); argument: TACTAAGCTTGGGTTCTAACCTGTTGCTT (site TACTAAGCTAT) 0.321

Try this sequence next: CGCGTTCCTTGGGTTCTAACCTGTTGCCT (site CGCGATCCTAG) 0.262

And what about the sequence AGCAGAGCTTGGGTTCTAACCTGTTGCAG (site AGCAGAGCTCA) ? 0.631

Proceed to CGTTCTACTTGGGTTCTAACCTGTTGCCT (site CGTTCTACTAG) 0.00743

Follow-up entry: CAGTTTGCTTGGGTTCTAACCTGTTGCCT (site CAGTTCGCTAG) 0.172

And then TTGACGACTTGGGTTCTAACCTGTTGCCA (site TTGTCGACTTG) , what is it? 0.0686

And what about the sequence TAACGTACTTGGGTTCTAACCTGTTGCTT (site TAAAGTACTAA) ? 0.137

###

- assay_overview: recombinant barcode read abundance after kanamycin selection (control-corrected) (log10(CPM+1)); higher = more efficient recombination; sequences stand for … in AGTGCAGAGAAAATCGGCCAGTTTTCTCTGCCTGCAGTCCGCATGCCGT…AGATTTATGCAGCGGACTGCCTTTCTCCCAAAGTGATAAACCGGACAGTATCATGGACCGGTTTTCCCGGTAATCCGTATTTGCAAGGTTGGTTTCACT; site = the 11-nt target
Hi, to clarify the labels: TRUE covers recombinant barcode read abundance (log10) from 0.08 upward, FALSE covers anything below 0.08.

GTACAAGCTTGGGTTCTAACCTGTTGCCT (site GTACAAGCTAG): TRUE
CAGTACTCTTGGGTTCTAACCTGTTGCCT (site CAGTATTCTAG): FALSE

Is recombinant barcode read abundance (log10) at least 0.08? Consider GTACGGCCTTGGGTTCTAACCTGTTGCCT (site GTACAGCCTAG) TRUE

Then ACCTACTCTTGGGTTCTAACCTGTTGCCT (site ACCTACGCTAG) ? FALSE

Similarly, GGGCCTTCTTGGGTTCTAACCTGTTGCAT (site GGGTCTTCTAT) ? FALSE

Quick one: GGGCCTACTTGGGTTCTAACCTGTTGCTC (site GGGCCTACTGA) TRUE

Note, next up: CTAACTCCTTGGGTTCTAACCTGTTGCCT (site CTAACTCCTAG) TRUE

Try this sequence next: CTTCGCACTTGGGTTCTAACCTGTTGCCT (site CGTCGCACTAG) FALSE

Same question, GACTGTCCTTGGGTTCTAACCTGTTGCGA (site GACTGTCCTTC) this time TRUE

Measured values drawn from the supplement of paper PMC11208160 for this set.
